biological target: hPTP1B (Homo sapiens)
Sequence (P18031 whole entry): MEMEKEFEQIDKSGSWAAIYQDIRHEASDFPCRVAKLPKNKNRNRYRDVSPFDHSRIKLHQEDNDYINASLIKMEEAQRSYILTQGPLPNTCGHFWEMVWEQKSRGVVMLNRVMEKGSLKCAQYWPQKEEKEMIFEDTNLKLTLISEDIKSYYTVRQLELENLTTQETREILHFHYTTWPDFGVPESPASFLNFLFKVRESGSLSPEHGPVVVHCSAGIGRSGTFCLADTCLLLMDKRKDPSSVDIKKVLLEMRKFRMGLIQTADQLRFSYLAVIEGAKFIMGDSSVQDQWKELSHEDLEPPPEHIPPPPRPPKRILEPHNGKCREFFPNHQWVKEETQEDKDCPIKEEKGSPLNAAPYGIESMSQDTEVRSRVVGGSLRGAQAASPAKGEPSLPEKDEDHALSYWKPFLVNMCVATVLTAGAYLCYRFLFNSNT
outcome.measure: pIC50
Worth noting: pIC50 values are minus log10 of concentrations stated in mol/L.

input: # get_value(readout='pIC50', item= Cc1oc(-c2ccc(C(F)(F)F)cc2)nc1-c1ccc(-c2ccc(OS(=O)(=O)c3ccc(C(=O)O)c(O)c3)cc2)cc1 )
output: 6.71
